- Tested on: U251 CNS
Answer with one of the outcomes given here: 1 = active, -1 = inactive

| Molecule | Assigned label |
| --- | --- |
| N#CC(I)CS(=O)(=O)c1ccccc1 (centres undefined) | -1 |
| NC(=S)N/N=C/c1ncccc1O | -1 |

Exam item: Would you mind telling me which call this test gave CC[C@]1(O)C[C@H]2CN(CCc3c([nH]c4ccccc34)C(C(=O)OC)(c3cc4c(cc3OC)N(C)[C@H]3[C@@](O)(C(=O)OC)[C@H](OC(C)=O)[C@]5(CC)[C@@H]6C[C@@H]6CN6CC[C@]43[C@@H]65)C2)C1 (some centres undefined) ?
Marked response: 1

Exam item: Would you mind telling me which call this test gave COC(=O)/C=C/c1cc(OC(C)=O)c2c(c1)C(C(=O)OC)C(c1ccc(OC(C)=O)c(OC(C)=O)c1)O2 (centres undefined) ?
Marked response: 1

###

- Tested on: IGROV1 ovarian
- Experiment description: NCI tumour cell line growth inhibition, 48 h
Measured TGI by item

Some solved entries appear below for comparison.
| Molecule | TGI |
| --- | --- |
| O=C(OCC(Cl)(Cl)Cl)N1CC[C@H](C2CCCCC2)C1 | 32.7 µM |
| CCC(C)(C)n1c(C)nc2c1C(=O)c1ccccc1C2=O | > 100 µM |
| CCOC(=O)CC/C(=N/Nc1ccc(Cl)cc1[N+](=O)[O-])C(=O)OCC | > 100 µM |
| CN(C)Cc1cc(C(=O)/C=C/c2ccc([N+](=O)[O-])cc2)cc(CN(C)C)c1O | 35.6 µM |
| COc1cc(Nc2ccc3c(c2)CCC3)nc(OC)n1 | > 100 µM |

Now for another entry.
Exam item: Reported TGI, molecule CC1(C)C=CC(=O)C(O)C(C)(C)C1=O (stereo not drawn) : ____
Marked response: > 100 µM

###

Measured GI50 by item
- System: NCI-H23 lung
- Experiment description: NCI tumour cell line growth inhibition, 48 h

Some solved entries appear below for comparison.
| Compound | GI50 |
| --- | --- |
| CCN(Cc1c(F)cccc1OC)c1ccc(CO)c(Cl)c1 | 12.5 µM |
| C=C(C)C(C1C=C(CCC(C=O)=C(C)C)C(=O)O1)C1(OC)C=C(C)C(=O)O1 (stereo unspecified) | 91.3 µM |
| Nc1c(C(=O)Nc2ccccn2)sc2nc3c(cc12)C(=O)CCC3 | 3.29 µM |
| CNCCCNc1ccnc2cc(Cl)ccc12 | 30.8 µM |

Exam item: Reported GI50, compound Cc1nc2sccn2c1-c1nc2sccn2c1/C=C1/C(=O)Nc2ccccc21 : ____
Marked response: 9.44 µM

Exam item: Reported GI50, compound C=C(CN(C)Cc1ccccc1)c1ccc(NC(=O)c2ccc(C(=C)CN(C)Cc3ccccc3)cc2)cc1 : ____
Marked response: 49.4 µM

Exam item: Reported GI50, compound NC(=S)N/N=C/c1ncccc1O : ____
Marked response: 1.38 µM

###

- Tested on: NCI-H522 lung
- Experiment description: NCI tumour cell line growth inhibition, 48 h
Measured TGI by item
Reply numerically in µM, unit not repeated.

Some solved entries appear below for comparison.
| Molecule | TGI (µM) |
| --- | --- |
| COc1cc(C2c3cc4c(cc3[C@@H](Nc3ccccc3)C3COC(=O)[C@H]23)OCO4)cc(OC)c1O (stereo partly specified) | 3.7 |
| CCCCCCCC(=O)OCC1OC(n2cc(F)c(=O)[nH]c2=O)C(N)C(OC(=O)CCCCCCC)C1O (stereo unspecified) | 28.9 |
| O=C(CCSC1=NCCCN1)c1ccc(F)cc1 | 3.86 |
| CC(C)Oc1cccc(N2C(=NCc3c[nH]c4ccccc34)Nc3ccncc3S2(=O)=O)c1 | 87.2 |
| COc1cc2c(cc1OCCCCCN1CCN(c3ncnc4ccccc34)CC1)N=CC1CCCN1C2=O (stereo unspecified) | 0.0269 |
| COc1ccc(NC(=O)CSc2nnc(-c3ccc(NC(C)=O)cc3)o2)cc1 | 33.9 |
| O=[N+]([O-])c1cccnc1N=Nc1c(O)[nH]c2ccccc12 | 69.3 |
| COc1cc(OC)c(OC)cc1/C=N/NC(=O)N/N=C/c1cc(OC)c(OC)cc1OC | 86.5 |
| O=C(O)c1cccc(S(=O)(=O)NN2C(=O)CSC2c2ccc(Cl)cc2Cl)c1 (stereo unspecified) | 91.4 |
| CCOC(=O)/C=C1/C(CCCOCc2ccccc2)C2CCCC23CC2(CCN13)OCCO2 (stereo unspecified) | 31.3 |

Exam item: Reported TGI, molecule CN1CC[C@]2(c3cccc(O)c3)CC(=O)/C(=C/c3ccccc3)[C@@H]1C2 : ____
Marked response: 11.2

Exam item: Reported TGI, molecule c1ccc(C(C(=Nc2ccc(Cc3ccc(N=C(C(c4ccccc4)c4ccccc4)N4CC4)cc3)cc2)N2CC2)c2ccccc2)cc1 : ____
Marked response: 19.8

Exam item: Reported TGI, molecule CCc1c(O)c(O)c(C(C)=O)c2c(O)c(-c3c(C)cc4c(CC)c(O)c(O)c(C(C)=O)c4c3O)c(C)cc12 : ____
Marked response: 14.8

Exam item: Reported TGI, molecule C[C@H](CCOc1cccc(CC(=O)O)c1)N(Cc1cccc(C(F)(F)F)c1Cl)CC(c1ccccc1)c1ccccc1 : ____
Marked response: 22.3

Exam item: Reported TGI, molecule COc1cc2c3c(n(C)c(=O)c2cc1OC)-c1cc2c(cc1C3=O)OCO2 : ____
Marked response: 34.8

Exam item: Reported TGI, molecule O=C1C/C(Br)=C\c2ccccc2-c2ccccc21 : ____
Marked response: 1.59

Exam item: Reported TGI, molecule COc1cc2c(cc1OCCCN1C(=O)c3cccc4cccc(c34)C1=O)N=C[C@@H]1CCCN1C2=O : ____
Marked response: 27.9

###

- Test system: M19-MEL melanoma
- Experiment description: NCI tumour cell line growth inhibition, 48 h
Measured TGI by item

Some solved entries appear below for comparison.
| Compound | TGI |
| --- | --- |
| CCOc1ccc(OCC(=O)O)c2c1CCCC2=O | > 100 µM |
| CCCCNCCCNCCCNC(=O)c1csc(-c2csc(CCNC(=O)C(NC(=O)C(C)C(O)C(C)NC(=O)C(NC(=O)c3nc(C(CC(N)=O)NCC(N)C(N)=O)nc(N)c3C)C(OC3OC(CO)C(O)C(O)C3OC3OC(CO)C(O)C(OC(N)=O)C3O)c3cnc[nH]3)C(C)O)n2)n1 (centres undefined) | > 100 µM |
| FC(F)(F)c1ccc2nc(NCc3ccccc3)c(-c3ccccc3)nc2c1 | > 100 µM |

Exam item: Reported TGI, compound c1ccc2c(c1)CCc1c(-c3ccncc3)n[nH]c1-2 : ____
Marked response: 72.8 µM

###

- System: IGROV1 ovarian
- Experiment description: NCI tumour cell line growth inhibition, 48 h
Readout: TGI

Some solved entries appear below for comparison.
| Molecule | Meas value |
| --- | --- |
| O=C(CN1C(=O)CC(c2ccccc2)(c2ccccc2)C1=O)N1CCN(CCO)CC1 | > 100 µM |
| C=CC12CCN(CC1)C(C(O)c1ccnc3ccc(OC)cc13)C2 (stereo not drawn) | > 100 µM |
| CO/N=C(/C(=O)OC)c1ccccc1COc1ccccc1C(F)(F)F | > 100 µM |
| Cc1cc2c(cc1C)[n+](=O)cc(C(=O)C/C(=N/NC(=S)NN)C(=O)Nc1cccc(C(F)(F)F)c1)n2[O-] | > 100 µM |
| c1ccc2c(c1)CCc1c(-c3ccncc3)n[nH]c1-2 | 89.2 µM |
| C=C(C)CNCCN | > 100 µM |
| CN1Cc2c(nc(-c3ccccc3)c[n+]2[O-])N(C)C1 | > 100 µM |
| CCOc1ccc(NC(=O)CC2SC(=Nc3ccc(C)cc3C)NC2=O)cc1 (stereo not drawn) | > 100 µM |

Exam item: Reported TGI, molecule CCCCOCCOC1=C(Cl)C(=O)c2c(O)ccc(O)c2C1=O : ____
Marked response: 2.47 µM

Exam item: Reported TGI, molecule Cc1nc2c(N)ncnc2o1 : ____
Marked response: > 100 µM

Exam item: Reported TGI, molecule [N-]=[N+]=CC(=O)OC(CCl)CCl : ____
Marked response: > 100 µM

Exam item: Reported TGI, molecule COc1cc2c(cc1OCCCN1C(=O)c3cccc4cccc(c34)C1=O)N=C[C@@H]1CCCN1C2=O : ____
Marked response: 31.5 µM

Exam item: Reported TGI, molecule OCCCc1ccc2c(c1)[C@H](CO)[C@@H](c1ccc(O)cc1)O2 : ____
Marked response: > 100 µM

Exam item: Reported TGI, molecule COc1ccc(CNc2c3ccccc3nc3ccccc23)cc1F : ____
Marked response: 10.4 µM

Exam item: Reported TGI, molecule CC[C@@H]1NC(C(=O)OC)Cc2c1[nH]c1ccccc21 (stereo partly drawn) : ____
Marked response: > 100 µM

Exam item: Reported TGI, molecule COc1ccc(NC(=O)CSc2nnc(-c3ccc(NC(C)=O)cc3)o2)cc1 : ____
Marked response: 36.9 µM

Exam item: Reported TGI, molecule NC(=O)c1cc(I)ccc1NC(=O)/C=C/c1ccccc1 : ____
Marked response: 19.9 µM

Exam item: Reported TGI, molecule COc1cc(C[P+](c2ccccc2)(c2ccccc2)c2ccccc2)cc(OC)c1OC : ____
Marked response: > 100 µM

Exam item: Reported TGI, molecule O=C(O)c1cccc(S(=O)(=O)NN2C(=O)CSC2c2ccc(Cl)cc2Cl)c1 (stereo not drawn) : ____
Marked response: > 100 µM

Exam item: Reported TGI, molecule Cc1cccc(NC2=C(Cl)C(=O)c3nc(C)ccc3C2=O)c1 : ____
Marked response: 2.6 µM

Exam item: Reported TGI, molecule COc1cc(C=O)ccc1O : ____
Marked response: > 100 µM

Exam item: Reported TGI, molecule C[C@H](CCOc1cccc(CC(=O)O)c1)N(Cc1cccc(C(F)(F)F)c1Cl)CC(c1ccccc1)c1ccccc1 : ____
Marked response: 19.4 µM

Exam item: Reported TGI, molecule CCCCCCCCSC1=C(Cl)C(=O)C(OC)=C(OC)C1=O : ____
Marked response: 32.2 µM
